- Tested on: PRKD1
- run.parameters: concentration: 1 μM, replicates: in singlicate; n = 1;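 further: KINOMEscan kinase panel screen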
molecules and their reported %Inh
Reply with just the number (in %).

Known results for molecules:
Give me measured %Inh, please, for this molecule: `COc1ccc(CSc2nnc(-c3ccc4nccn4c3)o2)cc1C(F)(F)F`
0

Give me measured %Inh, please, for this molecule: Nc1nccc(-c2c(-c3ccc(F)cc3)ncn2C2CCN(Cc3ccccc3)CC2)n1 [SB-219980]
0

Give me measured %Inh, please, for this molecule: O=C1NC(=O)C(c2ccc(Cl)cc2)=C1Nc1cccc(Cl)c1 [SB-317651]
38

Give me measured %Inh, please, for this molecule: O=c1cc(N2CCOCC2)nc2n(Cc3cccc(Cl)c3Cl)c3ccccc3n12 [GSK2299009]
7

***
Give me measured %Inh, please, for this molecule: Cc1ccc(NC(=O)Nc2ccc(Cl)cc2)cc1-c1ccc(C(=O)Nc2ccncc2)cc1 [GSK1398472]
0

Give me measured %Inh, please, for this molecule: NS(=O)(=O)c1cccc(N/C=C2\C(=O)Nc3ccc(S(=O)(=O)Cc4c(Cl)cccc4Cl)cc32)c1 [GSK398099]
0

Give me measured %Inh, please, for this molecule: CCn1c(-c2ccccc2)nc2cnccc21 [SB-733416]
0

Give me measured %Inh, please, for this molecule: O=C(Nc1n[nH]c2nc(-c3ccco3)c(Br)cc12)C1CCN(Cc2ccccc2)C1.O=C(O)[C@H](O)[C@@H](O)C(=O)O (stereo not drawn) [SB-742034]
14

Give me measured %Inh, please, for this molecule: Fc1ccc(-c2nc[nH]c2-c2ccncc2)cc1 [SB-217360]
0

Give me measured %Inh, please, for this molecule: O=c1cc(N2CCOCC2)nc2n(Cc3ccccc3F)ccn12 [GSK2297428]
0

Give me measured %Inh, please, for this molecule: `CCc1ccc(-c2ccc3c(c2)-c2n[nH]cc2S(=O)(=O)N3C)cc1`
14

Give me measured %Inh, please, for this molecule: `CNCc1ccc2nc(NC(=O)c3ccc(C(C)(C)C)cc3)cn2c1`
30

* * *

compounds and their reported %Inh
- System: CASK
- run.parameters: concentration: 1 μM, replicates: in singlicate; n = 1

Known results for compounds:
Give me measured %Inh, please, for this compound: `O=c1cc(N2CCOCC2)nc2n(Cc3cccc(Cl)c3Cl)c3ccccc3n12`
10%

Give me measured %Inh, please, for this compound: `Cn1cncc1-c1cc2c(Nc3ccc(OCc4ccccc4)cc3)ncnc2cn1`
20%

Give me measured %Inh, please, for this compound: `Cc1ccc(NC(=O)c2ccc(Cl)cc2)cc1-c1ccc(C(=O)Nc2ccncc2)cc1`
16%

***
Give me measured %Inh, please, for this compound: `COc1ccc(CSc2nnc(-c3ccc4nccn4c3)o2)cc1C(F)(F)F`
15%

Give me measured %Inh, please, for this compound: `Cc1c(Cn2c(C)c(C)n3c(=O)cc(N4CCOCC4)nc23)cccc1C(F)(F)F`
16%

* * *

- Tested on: RPS6KA5(Kin.Dom.1-N-terminal)
- run.parameters: concentration: 1 μM, replicates: in singlicate; n = 1
measure: %Inh (%)
Reply with just the number (in %).

# lookup: RPS6KA5(Kin.Dom.1-N-terminal) %Inh, key = `CCn1c(-c2c(N)noc2C)nc2cnccc21`
6

# lookup: RPS6KA5(Kin.Dom.1-N-terminal) %Inh, key = `COc1cccc(C2=C(Nc3cc(Cl)c(O)c(Cl)c3)C(=O)NC2=O)c1`
6

# lookup: RPS6KA5(Kin.Dom.1-N-terminal) %Inh, key = `Cc1ccc(NC(=O)Nc2ccc(Cl)c(C(F)(F)F)c2)cc1-c1ccc(C(=O)Nc2ccncc2)cc1`
17

* * *

- Tested on: AURKB
- run.parameters: concentration: 1 μM, replicates: in singlicate; n = 1
measure: %Inh (%)
Reply with just the number (in %).

Give me measured %Inh, please, for this molecule: Cc1ccc(NC(=O)Nc2ccc(Cl)c(C(F)(F)F)c2)cc1-c1ccc(C(=O)Nc2ccncc2)cc1 [GSK1398470]
0

***
Give me measured %Inh, please, for this molecule: c1ccc(-c2ccnc3[nH]ccc23)cc1 [SB-693578]
41

Give me measured %Inh, please, for this molecule: Cc1nccc(-c2c(-c3ccc(F)cc3)ncn2CCCN2CCOCC2)n1.Cl [SB-282975]
14

Give me measured %Inh, please, for this molecule: COC(=O)C(NC(=O)NC1CCN(c2ccnc(Nc3ccc(F)cc3)n2)C1)c1ccccc1 (centres unmarked) [GSK1379712]
0

Give me measured %Inh, please, for this molecule: Cl.Cl.Cl.N#Cc1ccc(CCNc2nccc(-c3cccc(CN4CCNCC4)c3)n2)cc1 [GSK2137462]
0

* * *

molecules and their reported %Inh
- Tested on: FER
- run.parameters: concentration: 1 μM, replicates: in singlicate; n = 1
Give the number first and the unit second.

Known results for molecules:
Give me measured %Inh, please, for this molecule: Cc1ccc(NC(=O)Nc2ccccc2F)cc1-c1ccc(C(=O)Nc2ccncc2)cc1 [GSK1398477]
16%

Give me measured %Inh, please, for this molecule: CC[C@@H]1CO[C@H](C(=O)Nc2ccccc2)CN1c1cc(-c2ccc3c(N)n[nH]c3c2)nc(NC)n1 [GSK2376236]
27%

Give me measured %Inh, please, for this molecule: CC(C)c1cc(-c2ccc3c(N)n[nH]c3c2)nc(N)n1 [GSK2250882]
14%

***
Give me measured %Inh, please, for this molecule: CNc1nc(-c2ccc3c(N)n[nH]c3c2)cc(N2C[C@@H](C(=O)Nc3ccccc3)CC[C@H]2C)n1 [GSK2298859]
33%

Give me measured %Inh, please, for this molecule: `COc1ccc(CSc2nnc(-c3ccc4ncsc4c3)o2)cc1C(F)(F)F`
0%

* * *

- Tested on: NEK3
- run.parameters: concentration: 1 μM, replicates: in singlicate; n = 1
measure: %Inh (%)
Reply with just the number (in %).

# lookup: NEK3 %Inh, key = `CC(=O)c1c(C)c2cnc(Nc3ccn(C)n3)nc2n(C2CCCC2)c1=O`
22

# lookup: NEK3 %Inh, key = `COc1ccc(Nc2nccc(-c3ccc(NC(=O)c4cc5cc(F)ccc5[nH]4)cc3)n2)cc1`
0

# lookup: NEK3 %Inh, key = `Cc1nccc(-c2c(-c3ccc(F)cc3)ncn2CCCN2CCOCC2)n1.Cl`
27

# lookup: NEK3 %Inh, key = `Cc1ccc(NC(=O)Nc2ccccc2F)cc1-c1ccc(C(=O)Nc2ccncc2)cc1`
13

***
# lookup: NEK3 %Inh, key = `CCc1ccc(-c2ccc3c(c2)-c2n[nH]cc2S(=O)(=O)N3C)cc1`
20

# lookup: NEK3 %Inh, key = `Cc1cnc(N)c(/C=C/c2cncc(C(=O)NCCc3ccc(Cl)cc3Cl)c2)c1.Cl`
0

# lookup: NEK3 %Inh, key = COC(=O)C(Cc1ccccc1)NC(=O)NC1CCN(c2ccnc(Nc3ccc(F)cc3)n2)C1 (stereo not drawn)
1

# lookup: NEK3 %Inh, key = COc1cccc(CNC(=O)NC2CCN(c3ccnc(Nc4ccc(F)cc4)n3)C2)c1 (stereo not drawn)
5

# lookup: NEK3 %Inh, key = `c1ccc(-c2ccnc3[nH]ccc23)cc1`
19

* * *

- Test system: CDK4-cyclinD1
- run.parameters: concentration: 1 μM, replicates: in singlicate; n = 1
measure: %Inh (%)
Reply with just the number (in %).

Known results for compounds:
# lookup: CDK4-cyclinD1 %Inh, key = Cc1c(Cn2c3ccccc3n3c(=O)cc(N4CCOCC4)nc23)cccc1C(F)(F)F [GSK2306394]
0

# lookup: CDK4-cyclinD1 %Inh, key = Cc1c(Cn2c(C)c(C)n3c(=O)cc(N4CCOCC4)nc23)cccc1C(F)(F)F [GSK2328680]
0

# lookup: CDK4-cyclinD1 %Inh, key = COC(=O)c1cccc(NC(=O)NC2CCN(c3ccnc(Nc4ccc(OC)cc4)n3)C2)c1 (stereo not drawn) [GSK1379746]
34

# lookup: CDK4-cyclinD1 %Inh, key = COC(=O)c1cccc(NC(=O)NC2CCN(c3ccnc(Nc4ccc(F)cc4)n3)C2)c1 (stereo not drawn) [GSK1379725]
0

# lookup: CDK4-cyclinD1 %Inh, key = O=c1cc(N2CCOCC2)nc2n(Cc3ccccc3F)ccn12 [GSK2297428]
0

# lookup: CDK4-cyclinD1 %Inh, key = O=c1cc(N2CCOCC2)nc2n(Cc3cccc(Cl)c3Cl)c3ccccc3n12 [GSK2299009]
0

# lookup: CDK4-cyclinD1 %Inh, key = `CC(=O)c1c(C)c2cnc(Nc3ccc(N4CCNCC4)cn3)nc2n(C2CCCC2)c1=O`
96.6

# lookup: CDK4-cyclinD1 %Inh, key = Cc1ccc(NC(=O)Nc2ccc(Cl)c(C(F)(F)F)c2)cc1-c1ccc(C(=O)Nc2ccncc2)cc1 [GSK1398470]
0

# lookup: CDK4-cyclinD1 %Inh, key = NS(=O)(=O)c1cccc(N/C=C2\C(=O)Nc3ccc(S(=O)(=O)Cc4c(Cl)cccc4Cl)cc32)c1 [GSK398099]
0

# lookup: CDK4-cyclinD1 %Inh, key = CCn1c(-c2ccccc2)nc2cnccc21 [SB-733416]
0

***
# lookup: CDK4-cyclinD1 %Inh, key = COc1ccc(Nc2nccc(NCCNC(=O)Nc3cc(C)ccc3C)n2)cc1 [GSK1379899]
0

# lookup: CDK4-cyclinD1 %Inh, key = Cc1ccccc1Cn1ccn2c(=O)cc(N3CCOCC3)nc12 [GSK2269905]
0

# lookup: CDK4-cyclinD1 %Inh, key = Cc1nccc(-c2c(-c3ccc(F)cc3)ncn2CCCN2CCOCC2)n1.Cl [SB-282975]
14

# lookup: CDK4-cyclinD1 %Inh, key = CC(C)c1cc(-c2ccc3c(N)n[nH]c3c2)nc(N)n1 [GSK2250882]
0

# lookup: CDK4-cyclinD1 %Inh, key = Cc1ccc(NC(=O)Nc2ccccc2F)cc1-c1ccc(C(=O)Nc2ccncc2)cc1 [GSK1398477]
0

# lookup: CDK4-cyclinD1 %Inh, key = CCn1c(-c2c(N)noc2C)nc2cnccc21 [SB-737856]
0

# lookup: CDK4-cyclinD1 %Inh, key = Fc1ccc(-c2nn3cccc(F)c3c2-c2ccncc2)cc1 [GW475620]
1

# lookup: CDK4-cyclinD1 %Inh, key = CNc1nc(-c2ccc3c(N)n[nH]c3c2)cc(N2C[C@@H](C(=O)Nc3ccccc3)CC[C@H]2C)n1 [GSK2298859]
0
